The following binders are shown together with reported IR/IGF-1R ratio comparison values.
target_or_test_system: T1, Insulin receptor (IR) prepared according to Bass et al., 1996 (human, UniProt P06213 28-956)
T1 construct: extracellular domain; also called soluble IR (Bass construct); sIR-Fc; not shown: immunoglobulin heavy chain constant domains of the Bass chimera
run_description: phage ELISA; ratio over background for IR divided by that for IGF-1R
Positions of bridges follow the written chain, without caps; N, C: chain ends. No end group written: not given here.
result_type: IR/IGF-1R ratio comparison (ratio)

- binder: "GCITAENGAGDPFYHKLSELGGCS (disulfide 2-23 (inferred); not fully specified (N-terminus, C-terminus)) [B6Hα-1-23-IR]"
  number: 0.3
- binder: "SSETAKMVTGTRDDPFYHKLSELVQGS [B6Hα-2-D8-IR]"
  number: 0.3
- binder: "RCGDEEGWQENRRDDPFYHKLSELFGGC (disulfide 2-28 (inferred); not fully specified (N-terminus, C-terminus)) [B6Hα-3-ES-IR]"
  number: 0.3
